- Experimental system: T1, Recombinant Human IL-23 (human, UniProt Q9NPF7 20-189; P29460 23-328)
- T1 construct: Recombinant human IL-23; the p40 subunit is added from general knowledge of the heterodimer; also called hIL-23
- T1 sequence (looked up) 1: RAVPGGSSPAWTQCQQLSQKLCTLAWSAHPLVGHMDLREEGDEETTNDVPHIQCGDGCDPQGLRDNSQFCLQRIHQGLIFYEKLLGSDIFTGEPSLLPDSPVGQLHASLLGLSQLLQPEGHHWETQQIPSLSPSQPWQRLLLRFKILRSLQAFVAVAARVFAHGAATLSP
- T1 sequence (looked up) 2: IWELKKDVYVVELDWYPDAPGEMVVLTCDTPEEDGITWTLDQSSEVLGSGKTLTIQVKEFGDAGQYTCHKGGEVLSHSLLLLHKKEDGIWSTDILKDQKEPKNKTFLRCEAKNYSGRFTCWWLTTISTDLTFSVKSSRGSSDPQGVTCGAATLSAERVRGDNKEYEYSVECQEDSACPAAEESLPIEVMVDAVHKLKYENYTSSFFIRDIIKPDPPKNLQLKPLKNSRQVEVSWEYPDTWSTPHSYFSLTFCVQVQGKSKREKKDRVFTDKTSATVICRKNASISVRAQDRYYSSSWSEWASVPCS
- Assay text: SPR (Biacore 8K), mAb captured on anti-human IgG, hIL-23 as analyte, 25 °C
- Protocol: Binding affinities (K_D) of antibodies to human IL-23 (generated as described in Examples 1-3) were determined through surface plasmon resonance (SPR) using a BIA-CORE™ 8K SPR system (Cytiva). […] Anti-IL23 mAb constructs (diluted to 2 µg/mL) were captured onto flow cell 2 (active) for 60 sec at a flow rate of 10 µL/min. […]

>  <Binder>
Clone MAb004 (antibody, human IgG1, V domains shown, Tested in full antibody format; The printed constant part is human IgG1 with LALA/YTE) VH: QVQLVQSGAEVKKPGSSVKVSCKASGYTFTAQTMHWMRQAPGQGLEWIGYIYPRDGSTKYNENFKGKVTITADKSTSTAYMELSSLRSEDTAVYYCAIPDRSGYAWFIVWGQGTLVTVSS VL: EIVMTQSPATLSVSPGERATLSCKASRDVAIAVAWYQQKPGQAPRLLLFWASTRHTGIPARFSGSGSRTEFTLTISSLQSEDFAVYYCHQYSSYPFTFGGGTKVEIK

>  <koff>
< 1e-06 s⁻¹

$$$$

Data provenance is patent US12655208.
